Data origin, for the record: patent US20100210694A1

test_description: Hydrolysis in acidic medium (pH 1) and in phosphate buffer (pH 7.4)
Type: physicochemical
applied_conditions: phosphate buffer 50 mM pH 7.4, 37 °C, 6 h, 250 μM
measurement_type: Stability in buffered solutions pH 7.4 % unchanged after 6 h (%)

{"molecule": "CC(=O)Oc1ccccc1C(=O)OC(C)OC(=O)c1ccc(SCCCO[N+](=O)[O-])cc1 (stereo not shown)", "value_prefix": ">", "reading": 98}
{"molecule": "CC(=O)Oc1ccccc1C(=O)OCOC(=O)c1ccc(CC(CO[N+](=O)[O-])O[N+](=O)[O-])cc1 (stereo not shown)", "value_prefix": "=", "reading": 100}
{"molecule": "CC(=O)Oc1ccccc1C(=O)OCOC(=O)c1ccc(OCCCO[N+](=O)[O-])cc1", "value_prefix": ">", "reading": 98}
{"molecule": "CC(=O)Oc1ccccc1C(=O)OCOC(=O)c1ccc(S(=O)(=O)CCCO[N+](=O)[O-])cc1", "value_prefix": "=", "reading": 70}
{"molecule": "CC(=O)Oc1ccccc1C(=O)OCOC(=O)c1ccc(SCC(CO[N+](=O)[O-])O[N+](=O)[O-])cc1 (stereo not shown)", "value_prefix": ">", "reading": 98}
{"molecule": "CC(=O)Oc1ccccc1C(=O)OCOC(=O)CCCCC(CO[N+](=O)[O-])O[N+](=O)[O-] (stereo not shown)", "value_prefix": "=", "reading": 100}
{"molecule": "CC(=O)Oc1ccccc1C(=O)OCOC(=O)Cc1ccc(OCCCO[N+](=O)[O-])cc1", "value_prefix": ">", "reading": 98}
{"molecule": "CC(=O)Oc1ccccc1C(=O)OCOC(=O)CCCC(CO[N+](=O)[O-])O[N+](=O)[O-] (stereo not shown)", "value_prefix": "=", "reading": 100}
{"molecule": "CC(=O)Oc1ccccc1C(=O)OCOC(=O)c1ccc(SCCCO[N+](=O)[O-])cc1", "value_prefix": ">", "reading": 98}
{"molecule": "CC(=O)Oc1ccccc1C(=O)OCOC(=O)c1ccc(OCC(CO[N+](=O)[O-])O[N+](=O)[O-])cc1 (stereo not shown)", "value_prefix": ">", "reading": 98}
